tested on: PPARg homodimer (NR concentration 180 nM); assay: PBM binding z-score (relative to random genomic background probes); higher = stronger binding; sequences stand for … in GC…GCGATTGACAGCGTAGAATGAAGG

CHAIN SEQUENCE	PBM binding z-score
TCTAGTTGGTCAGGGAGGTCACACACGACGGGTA	2.66
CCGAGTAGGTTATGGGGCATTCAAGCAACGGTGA	1.36
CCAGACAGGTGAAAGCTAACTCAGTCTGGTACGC	-0.106
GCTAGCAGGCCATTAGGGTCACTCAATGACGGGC	0.4
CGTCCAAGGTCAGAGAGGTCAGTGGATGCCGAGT	3.71
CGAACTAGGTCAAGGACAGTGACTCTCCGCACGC	1.66
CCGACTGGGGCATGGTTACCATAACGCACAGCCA	-0.129
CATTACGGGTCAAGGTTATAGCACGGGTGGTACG	2.26
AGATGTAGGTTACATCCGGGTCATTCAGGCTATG	1.58
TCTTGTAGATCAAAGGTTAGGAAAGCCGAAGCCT	1.92
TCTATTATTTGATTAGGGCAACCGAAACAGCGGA	2.2
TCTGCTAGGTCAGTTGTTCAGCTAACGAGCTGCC	-0.0463
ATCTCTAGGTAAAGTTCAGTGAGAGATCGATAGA	1.57
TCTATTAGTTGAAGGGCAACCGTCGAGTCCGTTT	0.883
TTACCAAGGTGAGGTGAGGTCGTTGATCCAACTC	0.645
CAAACTAGGTCAAGAGGTCATAGTCCGCTTCCCG	5.93
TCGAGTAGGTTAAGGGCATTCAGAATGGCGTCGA	0.261
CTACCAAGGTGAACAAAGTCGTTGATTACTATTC	0.58
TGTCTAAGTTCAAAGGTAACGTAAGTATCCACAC	1.56
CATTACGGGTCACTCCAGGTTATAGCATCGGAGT	2.09
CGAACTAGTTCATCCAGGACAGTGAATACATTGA	0.323
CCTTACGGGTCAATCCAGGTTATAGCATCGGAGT	1.18
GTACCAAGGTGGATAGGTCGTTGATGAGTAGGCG	0.672
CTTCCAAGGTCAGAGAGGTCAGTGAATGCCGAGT	3.75
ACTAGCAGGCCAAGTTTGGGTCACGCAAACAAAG	0.631
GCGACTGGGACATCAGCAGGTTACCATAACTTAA	-0.146
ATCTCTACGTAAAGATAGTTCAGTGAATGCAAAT	-0.705
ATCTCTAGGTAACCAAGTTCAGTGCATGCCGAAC	0.815
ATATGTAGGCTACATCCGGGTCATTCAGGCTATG	0.66
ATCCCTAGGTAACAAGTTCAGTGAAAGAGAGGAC	1.15
